Recorded values, source the nanobody polyreactivity screen of Harvey et al. (2022).

Test: yeast display, Sf9 membrane polyspecificity reagent, FACS + sequencing; frameworks hold sequencing errors
measured.parameter: polyreactivity (PSR sort gate)

Here are 5 sequences together with their reported answers.
macromolecule.sequence	polyreactivity (PSR sort gate)
QVQLVESGGGLVQAGGSLRLSCAASGFTFHYNAMGWYRQAPGKERELVAAITSGGSTYYADSVKGRFTISRDNAKNTVYLQMNSLKPEDTAVYYCNKLYYRYHHNYDYWGQGTQVTVSS	high polyreactivity
QVKLGESGGGLVQAGGSLLLSCAASGRTFWYYTMGWYRQAPGKERELVASITAGSGTTYYADSVKGRFTISRHNAKNTVYFQMYSLKPEDSAGYYCSSKNTPSFFYYDRYDYWGHGTQVTVSS	low polyreactivity
QVQLVESGGGLVQAGGSLRLSCAASGSIVGRYAMGWYSQAPGQERELVAAISTGDSTYYADSVKGRFTISRDNAKNTVYLQMNSLKPEDTAVYYCNRRGRRVYDYWGQGTQVTVSS	high polyreactivity
QVQLVESGGGLVQAGGSLRLSCAASGFTFTGYTMGWYRQAPGKQRELVATISGSGGNTYYADSVKGRFTISRDNAKNTVYLQMNSLKPEDTAVYYCARRRSGPRVLYYYWGQGTQVTVSS	low polyreactivity
QVQLVESGGGLFQAGGSLRLSCAASGSIINIYAMGWYRQAPGKERELVATITGIADSTYYADSVKGRFTISRDNAKNTVYLQMNSLKPEDTAVYYCAADKYVADYDYWGQGSQVTVSS	low polyreactivity

Which polyreactivity (PSR sort gate) value belongs to "QVQLVESGGGLVQAGGSLRLSCAASGNIFTNNAMGWYRQAPGKERELVAAISSSGGRTFYADSVKGRFTITRDNAKNTVNLQMNSLKPEDTSVYYCNKVASTRVSYLDMEYWGQGTQVTVSS" ?
high polyreactivity

Value lookup for polyreactivity (PSR sort gate); key = "QVQLVESGGGLVQAGGSLRLSCAASGLTFPPNAMGWYRQAPGKEREFVAVISSGGGSTYYADSVMGRFTISRDHAKNTVYLQMNSLKPEDTAVYNCATEYQDGDTEYYYWGQGTQVTVSS"
low polyreactivity

GET /values?readout=polyreactivity (PSR sort gate)&item= "QVQLVESGGGLVQAGGSLRLSCAASGRIFRYYAMGWYRQAPGKERELVAAISRRGSSTYYADSVKGRFTISRDNAKNTVYLQMNSLKPEDTAVYYCSAKRQVYQSESTYEYWGQGTQVTVSS"
high polyreactivity

Recorded polyreactivity (PSR sort gate) for "QVQLVESGGGLVQAGGSLRLSCAASGSIFTRNAMGWYRPAPGKERELVAAIRWNGGRTYYADSVKGRFTISRDNAKNTVYLQMNSLKPEDTAVYYCAADYYQRRYVPEYDYWGQGTQVTVSS" , please?
low polyreactivity

Name the recorded polyreactivity (PSR sort gate) for "QVQLVESVGGLVQAGGSLRLSCAASGSIFGTYAMGWYRQAPGKERELVAAISWRGGTYYADSVKGRFTISRDNAKNTVYLQMNSLKPEDTAVYYCNKLYTHRALGRLDYWGQGTQVTVSS" .
high polyreactivity

What does the record list as polyreactivity (PSR sort gate) for "QVQLVESGGGLVQAGGSLRLSCAASGGTFDWNAMGWYRQAPGKERELVASISSSGGSTYYADSVNGRFTISRDNAKNTVYLQMNSLKPEDTAVYYCNAERKIIAYLWWYDYWGQGTQVTVSS" ?
low polyreactivity
